Hey, just so you know, these numbers are from ChEMBL document CHEMBL1157631.

# tested.on: Insulin-like growth factor 1 receptor (Homo sapiens, UniProt P08069)
# Sequence (P08069 31-736 limits assumed): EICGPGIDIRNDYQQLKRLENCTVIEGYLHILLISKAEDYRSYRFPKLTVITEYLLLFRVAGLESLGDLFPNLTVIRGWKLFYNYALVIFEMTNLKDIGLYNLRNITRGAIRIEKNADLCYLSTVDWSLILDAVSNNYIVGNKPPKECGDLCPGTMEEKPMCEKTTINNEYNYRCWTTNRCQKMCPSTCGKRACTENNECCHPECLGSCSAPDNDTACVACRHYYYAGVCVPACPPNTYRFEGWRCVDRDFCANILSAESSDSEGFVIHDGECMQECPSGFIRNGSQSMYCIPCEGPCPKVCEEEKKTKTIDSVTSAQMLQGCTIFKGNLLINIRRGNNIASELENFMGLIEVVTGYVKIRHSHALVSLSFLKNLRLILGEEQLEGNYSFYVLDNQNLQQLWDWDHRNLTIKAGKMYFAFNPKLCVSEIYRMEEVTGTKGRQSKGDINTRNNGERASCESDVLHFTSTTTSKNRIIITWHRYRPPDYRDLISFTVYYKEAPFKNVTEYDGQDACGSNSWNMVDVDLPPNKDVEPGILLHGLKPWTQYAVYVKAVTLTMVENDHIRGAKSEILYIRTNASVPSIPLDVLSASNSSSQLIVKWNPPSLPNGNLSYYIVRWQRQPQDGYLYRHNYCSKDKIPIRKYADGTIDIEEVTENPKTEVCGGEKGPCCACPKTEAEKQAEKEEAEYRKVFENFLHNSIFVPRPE
# Sequence (P08069 741-1367 limits assumed): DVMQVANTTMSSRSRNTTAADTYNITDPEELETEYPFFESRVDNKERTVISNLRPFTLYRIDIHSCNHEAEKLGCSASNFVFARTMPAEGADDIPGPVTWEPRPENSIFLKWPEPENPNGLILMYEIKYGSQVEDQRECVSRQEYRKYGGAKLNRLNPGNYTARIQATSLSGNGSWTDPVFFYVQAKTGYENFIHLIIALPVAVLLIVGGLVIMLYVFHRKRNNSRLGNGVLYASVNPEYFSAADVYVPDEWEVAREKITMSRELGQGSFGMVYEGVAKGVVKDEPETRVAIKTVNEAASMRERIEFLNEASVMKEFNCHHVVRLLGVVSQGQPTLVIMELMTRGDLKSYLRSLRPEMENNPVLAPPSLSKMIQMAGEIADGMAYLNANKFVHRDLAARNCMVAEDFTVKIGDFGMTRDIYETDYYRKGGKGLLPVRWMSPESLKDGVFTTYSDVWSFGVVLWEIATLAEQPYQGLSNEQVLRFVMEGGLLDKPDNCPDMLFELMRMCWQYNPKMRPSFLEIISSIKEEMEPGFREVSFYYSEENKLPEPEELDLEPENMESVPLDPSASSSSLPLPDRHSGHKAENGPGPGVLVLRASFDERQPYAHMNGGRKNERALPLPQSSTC
# assay.protocol: Inhibition of IGF1R by ELISA
observation.type: IC50 (µM)

// below: answered molecules
COc1cc(/C=C2/SC(=O)NC2=O)cc(I)c1O	6.3
Cc1ccc(-c2ccc(/C=C3/SC(=O)NC3=O)o2)c(Br)c1	6.3
O=C1NC(=O)/C(=C\c2cc3c(cc2Br)OCO3)S1	3.3
CCOc1cc(/C=C2/SC(=O)NC2=O)cc(Br)c1O	5.2

(P) CCc1ccc(/C=C2\SC(=O)NC2=O)cc1
(Q) O=C1NC(=O)/C(=C\c2ccc(-c3cccc(Cl)c3Cl)o2)S1
(R) O=C1NC(=O)/C(=C\c2cccc([N+](=O)[O-])c2)S1
(S) O=C1NC(=O)/C(=C\c2ccc(-c3ccc(F)c(Cl)c3)o2)S1
(T) O=C1NC(=O)/C(=C/c2cccc(OCc3ccc(Cl)cc3Cl)c2)S1
INPUT: Sort low-to-high on IC50, please. Provide the ranking by listing each label in its place in the requested order.
OUTPUT: S, T, Q, R, P
(S: 0.28 µM, T: 1.6 µM, Q: 3.4 µM, R: 4.9 µM, P: 11.1 µM)
